From: PubChem BioAssay (EPA / NIEHS)

# Assay comment: ATG_RORE_CIS: Attagene CIS-FACTORIAL HepG2 Assay for human RAR-related Orphan Receptor Element (RORE) (AID 2282959)
# Run conditions: HepG2 Attagene cis-factorial RORE reporter, mRNA; actives raise or lower the signal
Activity calls are given as the source filed them. The calls were made as follows: active = hit-call score of the fitted dose curve at least 0.9, where 1 is the maximum; inactive = score below 0.9.
Measurement type: outcome

| Compound | Test value |
| --- | --- |
| Cl/C=C\CCl | inactive |
| ClCC(Cl)Cl | inactive |
| [Cl-].[Cl-].[Cl-].[Yb+3] | inactive |
| CC(C)CCCCCCCOC(=O)c1ccccc1C(=O)OCCCCCCCC(C)C | inactive |
| CCOC(=O)COc1ccc(Cl)cc1Cl | inactive |
| C=Cc1cccc(CCl)c1 | inactive |
| CN(C)C(=O)C(c1ccccc1)c1ccccc1 | inactive |
| S=c1[nH]c2ccccc2[nH]1 | inactive |
| [N-]=[N+]=CC(=O)OC[C@H](N)C(=O)O | inactive |
| Cc1ccc(C)c2ccccc12 | inactive |
| N#CCCCl | inactive |
| N#CCCCCC#N | inactive |
| C[C@]12CCC(=O)C(O)=C1CC[C@@H]1[C@@H]2CC[C@]2(C)C(=O)CC[C@@H]12 | inactive |
| CNC(=N[N+](=O)[O-])NCC1CCOC1 (stereo not given) | inactive |
| C=CCc1ccc(OC(=O)Cc2ccccc2)c(OC)c1 | inactive |

----------
# Target system: Cellular tumor antigen p53 (Homo sapiens) (UniProt P04637)
# Sequence (P04637 whole entry, looked up): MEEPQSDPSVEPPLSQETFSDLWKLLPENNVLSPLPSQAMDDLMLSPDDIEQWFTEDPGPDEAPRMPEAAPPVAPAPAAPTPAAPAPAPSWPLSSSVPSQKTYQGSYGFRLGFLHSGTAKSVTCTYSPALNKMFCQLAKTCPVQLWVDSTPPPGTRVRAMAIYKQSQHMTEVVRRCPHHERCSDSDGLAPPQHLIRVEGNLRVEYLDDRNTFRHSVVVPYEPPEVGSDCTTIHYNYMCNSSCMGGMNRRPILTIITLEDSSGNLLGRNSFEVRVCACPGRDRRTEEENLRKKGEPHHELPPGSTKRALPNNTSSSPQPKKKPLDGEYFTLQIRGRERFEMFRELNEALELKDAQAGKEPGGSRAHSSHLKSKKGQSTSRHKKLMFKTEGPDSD
# Assay comment: TOX21_p53_BLA_p2_ratio: Tox21 HCT-116 p53 Agonism Beta-lactamase Assay, Ratio, Phase 2 (AID 2283592)
Results filed as inconclusive are left out. The source made the active and inactive calls. The calls were made as follows: active = hit-call score of the fitted dose curve at least 0.9, where 1 is the maximum; inconclusive = response in the unintended direction; inactive = score below 0.9.
Outcome codes: active, inactive

| Compound | Target system | Label class |
| --- | --- | --- |
| N#C/C=C/C#N | Cellular tumor antigen p53 (Homo sapiens) (UniProt P04637) | inactive |
| CC[C@H]1[C@@H]2C[C@H]3[C@@H]4N(C)c5ccccc5[C@]45C[C@@H](C2C5O)N3[C@@H]1O (stereo partly drawn) | Cellular tumor antigen p53 (Homo sapiens) (UniProt P04637) | inactive |
| CCC(C(N)=O)N1CCCC1=O (stereo not drawn) | Cellular tumor antigen p53 (Homo sapiens) (UniProt P04637) | inactive |
| Cc1ncc(CNC(=O)N(CCCl)N=O)c(N)n1 | Cellular tumor antigen p53 (Homo sapiens) (UniProt P04637) | inactive |
| CC1N=C(N)OC1c1ccccc1 (stereo not drawn) | Cellular tumor antigen p53 (Homo sapiens) (UniProt P04637) | inactive |
| C=CC(=O)OCC(C)C | Cellular tumor antigen p53 (Homo sapiens) (UniProt P04637) | inactive |
| CN1C[C@H](C(=O)N[C@]2(C)O[C@@]3(O)[C@@H]4CCCN4C(=O)[C@H](Cc4ccccc4)N3C2=O)C=C2c3cccc4[nH]cc(c34)C[C@H]21 | Cellular tumor antigen p53 (Homo sapiens) (UniProt P04637) | inactive |
| CNC(=O)Oc1cc(C)c(N(C)C)c(C)c1 | Cellular tumor antigen p53 (Homo sapiens) (UniProt P04637) | inactive |
| SCc1ccccc1 | Cellular tumor antigen p53 (Homo sapiens) (UniProt P04637) | inactive |
| COc1cccc2c1cc([N+](=O)[O-])c1c(C(=O)O)cc3c(c12)OCO3 | Cellular tumor antigen p53 (Homo sapiens) (UniProt P04637) | active |
| CC(C)NCC(O)c1ccc([N+](=O)[O-])cc1 (stereo not drawn) | Cellular tumor antigen p53 (Homo sapiens) (UniProt P04637) | inactive |
| N#CCBr | Cellular tumor antigen p53 (Homo sapiens) (UniProt P04637) | inactive |
| O=C(O)c1cc[c]([Hg][Cl])cc1 | Cellular tumor antigen p53 (Homo sapiens) (UniProt P04637) | inactive |
